Assay: Stability in rhesus monkey microsomes assessed as compound remaining after 60 mins
Type: ADME, Macaca mulatta, Microsome
Conditions: read-out: Stability
Parameter: remaining at 1 h (%)

a = C[C@@H](O[C@H]1CN2C(=O)CC(N)[C@H]2[C@@H]1c1ccc(F)cc1)c1cc(C(F)(F)F)cc(C(F)(F)F)c1 (stereo in doubt; 15a)
b = C[C@@H](O[C@H]1CN2C(=O)C(O)C[C@H]2[C@@H]1c1ccc(F)cc1)c1cc(C(F)(F)F)cc(C(F)(F)F)c1 (stereo in doubt; 2b)
Enquiry: Select the item whose remaining at 1 h value is smaller, choosing between a and b . Returns: label corresponding to the selected item.
Return: b
(b: 23%, a: 91%)

====

Molecular target: Substance-P receptor (Homo sapiens)
Sequence (P25103 whole entry): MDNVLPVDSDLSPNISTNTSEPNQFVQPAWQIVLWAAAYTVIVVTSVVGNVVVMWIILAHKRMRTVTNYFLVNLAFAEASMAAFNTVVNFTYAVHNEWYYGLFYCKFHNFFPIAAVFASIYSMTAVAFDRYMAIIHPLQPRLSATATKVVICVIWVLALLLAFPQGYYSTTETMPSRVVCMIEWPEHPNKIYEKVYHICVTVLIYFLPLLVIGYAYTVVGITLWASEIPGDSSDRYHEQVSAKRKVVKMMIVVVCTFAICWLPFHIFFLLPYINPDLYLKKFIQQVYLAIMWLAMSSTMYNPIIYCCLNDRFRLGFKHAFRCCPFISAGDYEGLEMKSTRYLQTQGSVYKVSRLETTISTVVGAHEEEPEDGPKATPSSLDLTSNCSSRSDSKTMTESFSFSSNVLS
Test: Antagonist activity at human NK1 receptor expressed in CHO cells assessed as inhibition of substance P-induced inositol phosphate generation at 100 nM
Format: functional, cell-based
Parameter: inhibition of substance P-induced inositol phosphate generation (%)

Reference set (4 entries):
molecule=C[C@@H](O[C@H]1CN2C(=O)CC[C@H]2[C@@H]1c1ccc(F)cc1)c1cc(C(F)(F)F)cc(C(F)(F)F)c1 val=67
molecule="C[C@@H](O[C@H]1CN2C(=O)C(N)C[C@H]2[C@@H]1c1ccc(F)cc1)c1cc(C(F)(F)F)cc(C(F)(F)F)c1 (stereo in doubt; 3b)" val=59
molecule="C[C@@H](O[C@H]1CN2C(=O)CC(O)[C@H]2[C@@H]1c1ccc(F)cc1)c1cc(C(F)(F)F)cc(C(F)(F)F)c1 (single isomer, unassigned; 18a)" val=65
molecule="C[C@@H](O[C@H]1CN2C(=O)C(C)(O)C[C@H]2[C@@H]1c1ccc(F)cc1)c1cc(C(F)(F)F)cc(C(F)(F)F)c1 (single isomer, unassigned)" val=70

a = C[C@@H](O[C@H]1CN2C(=O)C(O)C[C@H]2[C@@H]1c1ccc(F)cc1)c1cc(C(F)(F)F)cc(C(F)(F)F)c1 (stereo in doubt; 2b)
b = C[C@@H](O[C@H]1CN2C(=O)C(NCc3nn[nH]c3CN(C)C)C[C@H]2[C@@H]1c1ccc(F)cc1)c1cc(C(F)(F)F)cc(C(F)(F)F)c1 (stereo partly specified)
Enquiry: Select the item whose inhibition of substance P-induced inositol phosphate generation value is smaller, choosing between a and b . Returns: label corresponding to the selected item.
Return: b

====

Assay: Half life in dog
Assay type: ADME, organism-based, Canis lupus familiaris
Settings: in vivo
Parameter: half-life (days)
Enter your answer as a number in days; do not include the unit.

compound C[C@@H](O[C@H]1CN2C(=O)C(O)C[C@H]2[C@@H]1c1ccc(F)cc1)c1cc(C(F)(F)F)cc(C(F)(F)F)c1 (stereo in doubt; 2b) , half-life observed: 5.34

====

Target: Substance-P receptor (Homo sapiens)
Assay: Displacement of [125I]substance P from human NK1 receptor expressed in CHO cells in the presence of 50 percent human serum
Type: cell-based
pIC50: −log10 of the molar value.
Parameter: pIC50

compound="C[C@@H](O[C@H]1CN2C(=O)CC(C)(O)[C@H]2[C@@H]1c1ccc(F)cc1)c1cc(C(F)(F)F)cc(C(F)(F)F)c1 (stereo in doubt; 20b)" parameter=pIC50 val=8.59

P = C[C@@H](O[C@H]1CN2C(=O)CC(O)[C@H]2[C@@H]1c1ccc(F)cc1)c1cc(C(F)(F)F)cc(C(F)(F)F)c1 (single isomer, unassigned; 18b)
Q = C[C@@H](O[C@H]1CN2C(=O)C(O)C[C@H]2[C@@H]1c1ccc(F)cc1)c1cc(C(F)(F)F)cc(C(F)(F)F)c1 (single isomer, unassigned)
R = C[C@@H](O[C@H]1CN2C(=O)CC(n3cnnc3)[C@H]2[C@@H]1c1ccc(F)cc1)c1cc(C(F)(F)F)cc(C(F)(F)F)c1 (some centres undefined)
Enquiry: Thanks in advance: please rank these 3 entries by pIC50, highest to lowest. Order the labels as requested and give them as your answer.
Return: R, P, Q
